tested on: Staphylococcus epidermidis ATCC 12228; test: In vitro MIC, two-fold dilution in microtiter; assay type: cell-based; details: 18-24 h at 37° C., inoculum about 10^4 CFU/ml
quantity: MIC Staphylococcus epidermidis ATCC 12228 (microgram/ml)
Kindly answer with a numeric value in microgram/ml, unit omitted.

Exercise: Return reported MIC Staphylococcus epidermidis ATCC 12228; argument: NCCN(CCN)CCNC(=O)C1NC(=O)C2NC(=O)C(NC(=O)C3NC(=O)C4NC(=O)C(Cc5ccc(c(Cl)c5)Oc5cc3cc(c5O)Oc3ccc(cc3Cl)C2O)NC(=O)C(N)c2ccc(O)c(c2)Oc2cc(O)cc4c2)c2ccc(O)c(c2)-c2c(O)cc(O)cc21 (centres unmarked)
Solution: 0.016

Exercise: Note, next up: NCCCNCCCNCCCNC(=O)C1NC(=O)C2NC(=O)C(NC(=O)C3NC(=O)C4NC(=O)C(Cc5ccc(c(Cl)c5)Oc5cc3cc(c5O)Oc3ccc(cc3Cl)C2O)NC(=O)C(N)c2ccc(O)c(c2)Oc2cc(O)cc4c2)c2ccc(O)c(c2)-c2c(O)cc(O)cc21 (centres unmarked)
Solution: 0.016

====

System: Staphylococcus aureus TOUR
Assay: In vitro MIC, two-fold dilution in microtiter
Assay type: cell-based
Details: 18-24 h at 37° C., inoculum about 10^4 CFU/ml
Method: Broth cultures are diluted enough so that the final inecuium is about 10^4 colony forming units/ml (CFU/ml).
quantity: MIC Staphylococcus aureus TOUR (microgram/ml)
// units = microgram/ml; emit number, no label

Exercise: Which value of MIC Staphylococcus aureus TOUR has been reported for CC(=O)N[C@H]1[C@H](OC2c3ccc(c(Cl)c3)Oc3cc4cc(c3O)Oc3ccc(cc3Cl)CC3NC(=O)C(N)c5ccc(O)c(c5)Oc5cc(O)cc(c5)C(NC3=O)C(=O)NC4C(=O)NC3C(=O)NC2C(=O)NC(C(=O)NCCCNCCCCNCCCN)c2cc(O)cc(O[C@H]4O[C@H](CO)[C@@H](O)[C@H](O)[C@@H]4O)c2-c2cc3ccc2O)O[C@H](CO)[C@@H](O)[C@@H]1O (some centres unmarked) in the records?
Solution: 0.25

Exercise: Query NCCCNCCCCNCCCNC(=O)C1NC(=O)C2NC(=O)C(NC(=O)C3NC(=O)C4NC(=O)C(Cc5ccc(c(Cl)c5)Oc5cc3cc(c5O)Oc3ccc(cc3Cl)C2O)NC(=O)C(N)c2ccc(O)c(c2)Oc2cc(O)cc4c2)c2ccc(O)c(c2)-c2c(O)cc(O)cc21 (centres unmarked) next
Solution: 0.06

Exercise: Here is the next molecule: NCCCNCCCNC(=O)C1NC(=O)C2NC(=O)C(NC(=O)C3NC(=O)C4NC(=O)C(Cc5ccc(c(Cl)c5)Oc5cc3cc(c5O)Oc3ccc(cc3Cl)C2O)NC(=O)C(N)c2ccc(O)c(c2)Oc2cc(O)cc4c2)c2ccc(O)c(c2)-c2c(O)cc(O)cc21 (centres unmarked)
Solution: 0.06

Exercise: Same question, CN(C)CCCN(CCCN)CCCNC(=O)C1NC(=O)C2NC(=O)C(NC(=O)C3NC(=O)C4NC(=O)C(Cc5ccc(c(Cl)c5)Oc5cc3cc(c5O)Oc3ccc(cc3Cl)C2O)NC(=O)C(N)c2ccc(O)c(c2)Oc2cc(O)cc4c2)c2ccc(O)c(c2)-c2c(O)cc(O)cc21 (centres unmarked) this time
Solution: 0.12

Exercise: Note, next up: NCCNCCNC(=O)C1NC(=O)C2NC(=O)C(NC(=O)C3NC(=O)C4NC(=O)C(Cc5ccc(c(Cl)c5)Oc5cc3cc(c5O)Oc3ccc(cc3Cl)C2O)NC(=O)C(N)c2ccc(O)c(c2)Oc2cc(O)cc4c2)c2ccc(O)c(c2)-c2c(O)cc(O)cc21 (centres unmarked)
Solution: 0.06

Exercise: Next record, please: CC(=O)NC1C(OC2c3ccc(c(Cl)c3)Oc3cc4cc(c3OC3OC(CO)C(O)C(O)C3NC(=O)CCCCCCC(C)C)Oc3ccc(cc3Cl)CC3NC(=O)C(N)c5ccc(O)c(c5)Oc5cc(O)cc(c5)C(NC3=O)C(=O)NC4C(=O)NC3C(=O)NC2C(=O)NC(C(=O)NCCCNCCCNCCCN)c2cc(O)cc(OC4OC(CO)C(O)C(O)C4O)c2-c2cc3ccc2O)OC(CO)C(O)C1O (centres unmarked)
Solution: 0.12

Exercise: # repeat for NCCCNCCCCCCCCCCNCCCNC(=O)C1NC(=O)C2NC(=O)C(NC(=O)C3NC(=O)C4NC(=O)C(Cc5ccc(c(Cl)c5)Oc5cc3cc(c5O)Oc3ccc(cc3Cl)C2O)NC(=O)C(N)c2ccc(O)c(c2)Oc2cc(O)cc4c2)c2ccc(O)c(c2)-c2c(O)cc(O)cc21 (centres unmarked)
Solution: 1

Exercise: Same thing, different molecule: NCCCNCCCCCCCCCNCCCNC(=O)C1NC(=O)C2NC(=O)C(NC(=O)C3NC(=O)C4NC(=O)C(Cc5ccc(c(Cl)c5)Oc5cc3cc(c5O)Oc3ccc(cc3Cl)C2O)NC(=O)C(N)c2ccc(O)c(c2)Oc2cc(O)cc4c2)c2ccc(O)c(c2)-c2c(O)cc(O)cc21 (centres unmarked)
Solution: 0.5

Exercise: Param item: NCCCN(CCCN)CCCNC(=O)C1NC(=O)C2NC(=O)C(NC(=O)C3NC(=O)C4NC(=O)C(Cc5ccc(c(Cl)c5)Oc5cc3cc(c5O)Oc3ccc(cc3Cl)C2O)NC(=O)C(N)c2ccc(O)c(c2)Oc2cc(O)cc4c2)c2ccc(O)c(c2)-c2c(O)cc(O)cc21 (centres unmarked)
Solution: 0.12

Exercise: One more molecule: NCCN(CCN)CCNC(=O)C1NC(=O)C2NC(=O)C(NC(=O)C3NC(=O)C4NC(=O)C(Cc5ccc(c(Cl)c5)Oc5cc3cc(c5O)Oc3ccc(cc3Cl)C2O)NC(=O)C(N)c2ccc(O)c(c2)Oc2cc(O)cc4c2)c2ccc(O)c(c2)-c2c(O)cc(O)cc21 (centres unmarked)
Solution: 0.06

Exercise: Entry to check: CC(=O)NC1C(OC2c3ccc(c(Cl)c3)Oc3cc4cc(c3OC3OC(CO)C(O)C(O)C3NC(=O)CCCCCCC(C)C)Oc3ccc(cc3Cl)CC3NC(=O)C(N)c5ccc(O)c(c5)Oc5cc(O)cc(c5)C(NC3=O)C(=O)NC4C(=O)NC3C(=O)NC2C(=O)NC(C(=O)NCCCNCCCCNCCCN)c2cc(O)cc(OC4OC(CO)C(O)C(O)C4O)c2-c2cc3ccc2O)OC(CO)C(O)C1O (centres unmarked)
Solution: 0.12

Exercise: // query: NCCCNCCCNCCCNC(=O)C1NC(=O)C2NC(=O)C(NC(=O)C3NC(=O)C4NC(=O)C(Cc5ccc(c(Cl)c5)Oc5cc3cc(c5O)Oc3ccc(cc3Cl)C2O)NC(=O)C(N)c2ccc(O)c(c2)Oc2cc(O)cc4c2)c2ccc(O)c(c2)-c2c(O)cc(O)cc21 (centres unmarked)
Solution: 0.06

Exercise: Same thing, different molecule: NCCNCCCNCCNC(=O)C1NC(=O)C2NC(=O)C(NC(=O)C3NC(=O)C4NC(=O)C(Cc5ccc(c(Cl)c5)Oc5cc3cc(c5O)Oc3ccc(cc3Cl)C2O)NC(=O)C(N)c2ccc(O)c(c2)Oc2cc(O)cc4c2)c2ccc(O)c(c2)-c2c(O)cc(O)cc21 (centres unmarked)
Solution: 0.06

Exercise: Thanks! And NCCCN1CCN(CCCNC(=O)C2NC(=O)C3NC(=O)C(NC(=O)C4NC(=O)C5NC(=O)C(Cc6ccc(c(Cl)c6)Oc6cc4cc(c6O)Oc4ccc(cc4Cl)C3O)NC(=O)C(N)c3ccc(O)c(c3)Oc3cc(O)cc5c3)c3ccc(O)c(c3)-c3c(O)cc(O)cc32)CC1 (centres unmarked) ?
Solution: 0.06
